B1: CLK3 (parent)
chain: FGEDYYGPSRSRHRRRSRERGPYR

Variants of: B1
Procedure text: protein stability index of a GFP-peptide fusion (GPS, HEK-293T) (PSI 1-6); higher = more stable;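 also: lentivirally expressed fusions sorted by FACS into six bins by GFP to DsRed ratio, PSI derived from sequencing read proportions per bin multiplied by bin number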
Test conditions: c terminus: a fixed tail appended
Assay metric: protein stability index
# respond with the number and nothing more

Request: Could you tell me which protein stability index is on file for G21C ?
Response: 3.2

Request: Param item: P22L
Response: 2.37

Request: Param item: R14A
Response: 1.88

Request: Param item: R12H
Response: 2.51

Request: Param item: R20K
Response: 2.62

Request: Param item: H13W
Response: 1.93

Request: Param item: G7N
Response: 2.06

Request: Param item: P8E
Response: 2.56

Request: Param item: R10W
Response: 2.85

Request: Param item: R24F
Response: 2.8

Request: Param item: R16P
Response: 1.63
